# system.tested: 20S Human Erythrocyte Proteasome (HEP) (Homo sapiens, UniProt P20618+P28074)
# Construct: 20S Human Erythrocyte Proteasome (HEP), purchased from Immatics Biotechnologies Inc; purchased Immatics Biotechnologies Inc., Tübingen, Germany; host or cells: human erythrocytes (natural source)
# assay.info: Chymotrypsin-like activity of 20S Human Erythrocyte Proteasome (HEP), IC50 determination
# Type: biochemical
# condition.summary: assay of Example C, inhibition of HEP
assay.readout: IC50

| compound | assay.readout | observed |
| --- | --- | --- |
| CC(C)=CCC[C@@H](C)CC(=O)N[C@@H](CCCNC(=N)N[N+](=O)[O-])C(=O)N[C@@H](CC(C)C)B(O)O [D.7.25] | IC50 | < 10 nM |
| CCCCCCCCCCCCCC(=O)N[C@@H](CCCNC(=N)N[N+](=O)[O-])C(=O)N[C@@H](CC(C)C)B1O[C@@H]2C[C@@H]3C[C@@H](C3(C)C)[C@]2(C)O1 [D.3.102] | IC50 | < 10 nM |

Request - read-out IC50 | tested on 20S Human Erythrocyte Proteasome (HEP) (Homo sapiens, UniProt P20618+P28074) | compound CCCCCCCCCC(=O)N[C@@H](CNC(=O)CCCCC)C(=O)N[C@@H](CC(C)C)B(O)O [E.5.13]
< 10 nM

---

# system.tested: 20S Human Erythrocyte Proteasome (HEP) (Homo sapiens, UniProt P20618+P28074)
# Construct: 20S Human Erythrocyte Proteasome (HEP), purchased from Immatics Biotechnologies Inc
# assay.info: Chymotrypsin-like activity of 20S Human Erythrocyte Proteasome (HEP), IC50 determination
# condition.summary: assay of Example C, inhibition of HEP
pIC50: −log10 of the molar value.
Reported pIC50 values follow for various compounds

| compound | pIC50 |
| --- | --- |
| CC(C)CC(=O)N[C@@H](CCCNC(=N)N[N+](=O)[O-])C(=O)N[C@@H](CC(C)C)B(O)O | > 8.00 |
| CC(C)C[C@H](NC(=O)[C@H](CCCNC(=N)N[N+](=O)[O-])NC(=O)c1ccc(-n2cccc2)cc1)B(O)O | > 8.00 |
| CCCCCC(=O)NC[C@H](NC(=O)c1ccc(CCCC)cc1)C(=O)N[C@@H](CC(C)C)B1O[C@@H]2C[C@@H]3C[C@@H](C3(C)C)[C@]2(C)O1 | > 8.00 |
| CC(C)C[C@H](NC(=O)[C@H](CCCNC(=N)N[N+](=O)[O-])NC(=O)C1CCCCN1C(=O)OC(C)(C)C)B(O)O (mixture of isomers) | > 7.00 |
| CC(C)C[C@H](NC(=O)[C@H](CCCNC(=N)N[N+](=O)[O-])NC(=O)CCCCCCCc1ccccc1)B1O[C@@H]2C[C@@H]3C[C@@H](C3(C)C)[C@]2(C)O1 | > 8.00 |

From here, focus on the item given below.
Entry CC(=O)N[C@@H](CCCNC(=N)N[N+](=O)[O-])C(=O)N[C@@H](CC(C)C)B(O)O has what pIC50?
> 7.00

---

# system.tested: 20S Human Erythrocyte Proteasome (HEP) (Homo sapiens, UniProt P20618+P28074)
# Construct: 20S Human Erythrocyte Proteasome (HEP), purchased from Immatics Biotechnologies Inc
# assay.info: Chymotrypsin-like activity of 20S Human Erythrocyte Proteasome (HEP), IC50 determination
# condition.summary: assay of Example C, inhibition of HEP
pIC50: −log10 of the molar value.
Reported pIC50 values follow for various compounds

Examples with answers:
| smiles.record | system.tested | pIC50 |
| --- | --- | --- |
| CC(C)C[C@H](NC(=O)[C@H](CCCNC(=N)N[N+](=O)[O-])NC(=O)CSCc1ccccc1)B(O)O | 20S Human Erythrocyte Proteasome (HEP) (Homo sapiens, UniProt P20618+P28074) | > 8.00 |
| CCCCc1ccc(C(=O)N[C@@H](CNC(=O)c2ccc(C)cc2)C(=O)N[C@@H](CC(C)C)B2O[C@@H]3C[C@@H]4C[C@@H](C4(C)C)[C@]3(C)O2)cc1 | 20S Human Erythrocyte Proteasome (HEP) (Homo sapiens, UniProt P20618+P28074) | > 8.00 |
| CCCCc1ccc(C(=O)N[C@@H](CC(N)=O)C(=O)N[C@@H](CC(C)C)B2O[C@@H]3C[C@@H]4C[C@@H](C4(C)C)[C@]3(C)O2)cc1 | 20S Human Erythrocyte Proteasome (HEP) (Homo sapiens, UniProt P20618+P28074) | > 8.00 |
| CC(C)C[C@H](NC(=O)[C@H](CCCNC(=N)N[N+](=O)[O-])NC(=O)CCc1ccccc1)B1O[C@@H]2C[C@@H]3C[C@@H](C3(C)C)[C@]2(C)O1 | 20S Human Erythrocyte Proteasome (HEP) (Homo sapiens, UniProt P20618+P28074) | > 8.00 |
| C/C(=C\c1ccccc1)C(=O)N[C@@H](CCCNC(=N)N[N+](=O)[O-])C(=O)N[C@@H](CC(C)C)B(O)O | 20S Human Erythrocyte Proteasome (HEP) (Homo sapiens, UniProt P20618+P28074) | > 8.00 |

Entry CCCCc1ccc(C(=O)N[C@@H](CNC(=O)c2cccs2)C(=O)N[C@@H](CC(C)C)B(O)O)cc1 has what pIC50?
> 8.00
